SYSTEM UNDER TEST: JAK2 (Homo sapiens (Human), UniProt O60674)
Sequence (O60674 849-1124): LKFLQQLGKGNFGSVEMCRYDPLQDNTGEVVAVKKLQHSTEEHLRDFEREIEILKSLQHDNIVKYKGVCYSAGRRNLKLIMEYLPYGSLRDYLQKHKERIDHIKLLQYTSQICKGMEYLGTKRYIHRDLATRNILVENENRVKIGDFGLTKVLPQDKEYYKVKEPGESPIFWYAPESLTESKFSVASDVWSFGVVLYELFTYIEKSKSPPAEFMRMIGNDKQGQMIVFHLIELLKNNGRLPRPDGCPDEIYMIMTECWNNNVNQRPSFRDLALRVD
MEASUREMENT NOTES: Jak Biochemical HTRF Assay, JAK2
CONDITIONS USED: HTRF biochemical assay, GST-tagged catalytic domain; top concentration tested […]
Form field: pIC50 (one value per entry).
pIC50 here: minus log base 10 of the concentration, concentration in moles per litre.

[[record]]
compound = "CC(C)(C)OC(=O)N1CCC(CC#N)(n2cc(C(N)=O)c(Nc3cccc(-c4ccc5ccccc5c4)c3)n2)CC1 [Example 15-9]"
observed_measurement = 5.83

[[record]]
compound = "N#CCC1(n2cc(C(N)=O)c(Nc3ccc(F)cc3)n2)CCC(=O)CC1 [Example 40-1A]"
observed_measurement = 7.41

[[record]]
compound = "CC(c1ccccc1)N1CCC(CC#N)(n2cc(C(N)=O)c(Nc3ccc(F)cc3)n2)CC1 (stereo not shown) [Example 23]"
observed_measurement = 6.98

[[record]]
compound = "N#CCC1(n2cc(C(N)=O)c(Nc3ccnc(F)c3)n2)CCN(Cc2ccccc2C#N)CC1 [Example 22-72]"
observed_measurement = 7.89


Task: Given N#CCC1(n2cc(C(N)=O)c(Nc3ccccc3)n2)CCN(Cc2c(F)ccc(F)c2F)CC1 [Example 21-26] , state its recorded pIC50.
Output: 7.96

Task: Given CC(C)S(=O)(=O)N1CCC(CC#N)(n2cc(C(N)=O)c(Nc3ccccc3)n2)CC1 [Example 37-1] , state its recorded pIC50.
Output: 7.89

Task: Given N#CCC1(n2cc(C(N)=O)c(Nc3ccccc3)n2)CCN(S(=O)(=O)c2ccccc2Cl)CC1 [Example 37-12] , state its recorded pIC50.
Output: 8.05

Task: Given CC(C)(CO)OC(=O)N1CCC(CC#N)(n2cc(C(N)=O)c(Nc3ccc(F)cc3)n2)CC1 [Example 29] , state its recorded pIC50.
Output: 7.02

Task: Given N#CCC1(n2cc(C(N)=O)c(Nc3ccnc(F)c3)n2)CCC(Nc2cccc(Cl)c2)CC1 (stereo not shown) [Example 40-62] , state its recorded pIC50.
Output: 6.08
